B1: Storkhead-box protein 2, residues 64 to 141; numbered along this chain, Q9P2F5 (parent)
chain: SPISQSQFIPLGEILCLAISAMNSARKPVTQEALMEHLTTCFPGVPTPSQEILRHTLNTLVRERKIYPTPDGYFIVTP

variants of: B1; assay: abundance fitness (aPCA) (normalised: wild type 0, dead -1); higher = more abundant; growth selection in yeast, the domain comes from the species named; settings: Homo sapiens
Each entry below lists one item and its recorded abundance fitness value.

// known answers, use as guide
SPISQSQFIPLGEILCLAISAMNSARKPVTQEALMEHLTTCFPGVPTPSQEILRHTLNTLVRERKIYPTPDGYFHVTP [I75H]	-0.172
SPISQSQFIPLGEILCLAISAMNSARKPVTQEALMEHLTTCFMGVPTPSQEILRHTLNTLVRERKIYPTPDGYFIVTP [P43M]	-0.21
SPISQSQFIPLGEILCLAISAMNSARKPVTQEALMEHLTTCFPGVPTPSQEILRHTLNTLVRERKIYVTPDGYFIVTP [P68V]	0.082

Any idea what abundance fitness was measured for SPISQSQFIPLGEDLCLAISAMNSARKPVTQEALMEHLTTCFPGVPTPSQEILRHTLNTLVRERKIYPTPDGYFIVTP [I14D] ?
-0.258

So what's the measured abundance fitness for this one? SPISQSQFIPLGEILCLAISAMNSARKPVTQEALMEPLTTCFPGVPTPSQEILRHTLNTLVRERKIYPTPDGYFIVTP [H37P]
-0.802

What value of abundance fitness has been reported for the following variant? SPISQSQFIPLGEILWLAISAMNSARKPVTQEALMEHLTTCFPGVPTPSQEILRHTLNTLVRERKIYPTPDGYFIVTP [C16W]
-0.052

Please report the recorded abundance fitness for SPISQSQFIPLGEILCLAISAMNSARKPVTQEALMEHLTTCFPGVPTPSQWILRHTLNTLVRERKIYPTPDGYFIVTP [E51W] .
-0.145

Which abundance fitness value is on record for SPISQSQFIPLGEILCLAISPMNSARKPVTQEALMEHLTTCFPGVPTPSQEILRHTLNTLVRERKIYPTPDGYFIVTP [A21P] ?
-0.774

So what's the measured abundance fitness for this one? SPISQSQFIPLGEILCLAISAMNSARKIVTQEALMEHLTTCFPGVPTPSQEILRHTLNTLVRERKIYPTPDGYFIVTP [P28I]
-0.091

State the recorded abundance fitness for this entry: SPISQSQFIPLGEILCLAISAWNSARKPVTQEALMEHLTTCFPGVPTPSQEILRHTLNTLVRERKIYPTPDGYFIVTP [M22W]
-0.336

Given the entry SPISQSQFIPLGEILCHAISAMNSARKPVTQEALMEHLTTCFPGVPTPSQEILRHTLNTLVRERKIYPTPDGYFIVTP [L17H] , report its measured abundance fitness.
0.034

Can you share its abundance fitness? I mean this variant: SPISQSQFIPLGEILCLAISAMNSARKPVCQEALMEHLTTCFPGVPTPSQEILRHTLNTLVRERKIYPTPDGYFIVTP [T30C]
-0.026

Tell me the measured abundance fitness of SPISQSQFIPLGEILCLAISAMNSARKPVTQEALMEHLMTCFPGVPTPSQEILRHTLNTLVRERKIYPTPDGYFIVTP [T39M] , please.
-0.117

So what's the measured abundance fitness for this one? SPISQSQFIPLGEILCLAISAMNSARKPVTQEALMEHLTTCIPGVPTPSQEILRHTLNTLVRERKIYPTPDGYFIVTP [F42I]
0.009

What abundance fitness value was documented for this variant, SPISQSQFIPLGEILCLAISAMNSARKPVDQEALMEHLTTCFPGVPTPSQEILRHTLNTLVRERKIYPTPDGYFIVTP [T30D] ?
-0.067

Name the reported abundance fitness value associated with the variant SPISQSQFIPNGEILCLAISAMNSARKPVTQEALMEHLTTCFPGVPTPSQEILRHTLNTLVRERKIYPTPDGYFIVTP [L11N]
-0.466

Which abundance fitness value is on record for SPISQSQFIPLGEILCLAISAMNSARKPVTQEALMEHLTTCFPGVPTPSIEILRHTLNTLVRERKIYPTPDGYFIVTP [Q50I] ?
0.047

What value of abundance fitness has been recorded for this entry: SPISQSQFIPLGEILCLAISAMNTARKPVTQEALMEHLTTCFPGVPTPSQEILRHTLNTLVRERKIYPTPDGYFIVTP [S24T]
0.058

So what's the measured abundance fitness for this one? SPISQSQFIPLGEILCLAISAMNSARKPVTQEALMEHLTTCFPGVPTPSQEALRHTLNTLVRERKIYPTPDGYFIVTP [I52A]
-0.085

Consider the variant SPISQSQFIPLGEILCLAISAMNSARKPVTQEALMEHLTTCFPGVPQPSQEILRHTLNTLVRERKIYPTPDGYFIVTP [T47Q] and give its measured abundance fitness.
-0.067

Give its abundance fitness value. Item: SPISQSQFIPLGEILCLTISAMNSARKPVTQEALMEHLTTCFPGVPTPSQEILRHTLNTLVRERKIYPTPDGYFIVTP [A18T]
-0.099

Please give the measured abundance fitness for this variant: SPISQSQFIPLGEILCLAISAMNSMRKPVTQEALMEHLTTCFPGVPTPSQEILRHTLNTLVRERKIYPTPDGYFIVTP [A25M]
-0.048
